Species: Rattus norvegicus
Test: Open TG-GATES - Regimen: Single
Format: toxicity, organism-based, Sprague-Dawley
Set-up: regimen Single, gender Male, age 6 weeks
Details: in vivo, po, 1000 mg/kg, 6 h, tissue Blood, route gavage, dose level High
readout-name: Lym (%)
One number for each entry, in %.

- O=C(O)c1cc(/N=N/c2ccc(S(=O)(=O)Nc3ccccn3)cc2)ccc1O [SULFASALAZINE]: 76.4
- Clc1ccccc1CN1CCc2sccc2C1 [TICLOPIDINE]: 71.8
- C[C@H](CS)C(=O)N1CCC[C@H]1C(=O)O [CAPTOPRIL]: 79.6
- O=C(O)c1cn(C2CC2)c2cc(N3CCNCC3)c(F)cc2c1=O [CIPROFLOXACIN]: 78.2

Enquiry: I have this compound here, CCc1cc(C(N)=S)ccn1 [ETHIONAMIDE] , and I need its recorded Lym.
Return: 75.6
